# system_name: Calcineurin (CN), purified as glutathione S-transferase fusion protein from Escherichia coli BL21 cells (UniProt Q08209)
# test_summary: fluorescence anisotropy, N-terminal 5(6)-SFX labeled peptide (100 nM) titrated with CN
pKd: −log10 of the molar value.
parameter: pKd

INSERT INTO measurements (substance, readout_value) VALUES
  ('Fluorescein-labeled ZIZIT peptide (GPHPZIZITGPHEE, Z = tert-leucine)', 7.37);

###

# system_name: Calcineurin (CN), purified as glutathione S-transferase fusion protein from Escherichia coli BL21 cells (UniProt Q08209)
# test_summary: FA competition, competitor FITC-ZIZIT (100 nM), CN 150 nM
pIC50: −log10 of the molar value.
Quick reference: pIC50 of the listed items.
parameter: pIC50

INSERT INTO measurements (substance, readout_value) VALUES
  ('unlabeled ZIZIT peptide (GPHPZIZITGPHEE, Z = tert-leucine)', 6.55),
  ('unlabeled ZIZIT-cisPro peptide (GPHPZIZITG-Cys(Ψ^Me,MePro)-HEE)', 6.96);

Source of measurements: patent US20170281723A1
